B1: LINE1-mini (parent)
chain: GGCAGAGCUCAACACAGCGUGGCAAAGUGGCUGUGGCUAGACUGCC

Variants of: B1
Assay: self-cleavage, relative activity (ratio to wild type); higher = more cleavage; in vitro, sequencing; the parent is a self-cleaving ribozyme
Measured quantity: self-cleavage
Answer field: number only, no words.

The value of self-cleavage measured for the variant GGCAGAGCUCAACACAGCGUGGCUAAGUGGCUGAGGCUAGACUGCC turned out to be 0.08

Consider GGCAGAGCUCAACACAGCGUGGCAAGGCGGCUGUGGCUAGACUGCC . Its measured self-cleavage is 1.18

Note to self: self-cleavage recorded for GGCAGAGCUCCACACAGCGUGGCAAAGUGGCUGUGGCUAGACUGCG was 0.02

Record GGCAGAGCCCAACACAGCGUGGCAAAGUGGCUUUGGCUAGACUGCC , field self-cleavage: 0.03

Per the record, GGCAGAGCUCAACACAGCAUGGCAAAAUGGCUGUGGCUAGACUGCC has self-cleavage of 1.19

Noted for GGCAGAGCUCAACACAGCGUGGCAAAGUGGAUGUCGCUAGACUGCC : its self-cleavage reads 0.04

Query GACAGAGCUCAACACAGCGUGGCAAAGUAGCUGUGGCUAGACUGCC yields self-cleavage of 0.61

Recorded result, GGCAUAGCUCAACACAGCGUGGCAAAGUGGCUGUGGCUAGACUGGC , self-cleavage: 0.08

Consider GGCGGAGCUCAACACAGCGUGGCAAAGCGGCUGUGGCUAGACUGCC . Its measured self-cleavage is 1.09

For GGCAGAUCUCAACGCAGCGUGGCAAAGUGGCUGUGGCUAGACUGCC the variant record lists self-cleavage as 0.15

# self-cleavage (variant: GGCAGAGCUCAACACAGCGUGGCAUAGUGGCUUUGGCUAGACUGCC ) is 0.13

variant GGCAGAGCUCAACACAGCGUGGCAAACUGGCGGUGGCUAGACUGCC , self-cleavage observed: 0.08

// self-cleavage lookup, variant = GGCAGAGCUCAACACAUCGUGGCAAAGUGGCUGUGGAUAGACUGCC , result: 0.1

# variant GACAGAGCUCAACACAGCGUCGCAAAGUGGCUGUGGCUAGACUGCC ; its self-cleavage = 0.46

Lab note: measured self-cleavage of GGCAGAGCUCAACACAGCGUGGCACAGUGGCUGGGGCUAGACUGCC was 0.06

The variant listed as GGCAGAGCUCAACACAGCGUGGCAAAUUGGCUGUGGCUAGACUGAC shows self-cleavage equal to 0.92

variant GGGAGAGCUCAACACAGCGUGGCAAAGUGGCUGUGGUUAGACUGCC , self-cleavage observed: 0.5

# self-cleavage of GGCAGAGCUCAACACAGAGUGGCAAAGUGGCUGUGGCUUGACUGCC = 0.76

GCCAGAGUUCAACACAGCGUGGCAAAGUGGCUGUGGCUAGACUGCC yielded self-cleavage of 0.18

Measured self-cleavage of GGCAGAGCUCAACAUAGCGUGGCAAAGUGGCUGUCGCUAGACUGCC : 0.14

Entry GGCAGAGCUCAACAGAGCGUGGCAAAGUGGCUGUGGCUAGAAUGCC , self-cleavage reported as 0.04

Value of self-cleavage reported for the variant GAGAGAGCUCAACACAGCGUGGCAAAGUGGCUGUGGCUAGACUGCC is 0.76

Noted for GGCAGAUCUCAACACAGCGUUGCAAAGUGGCUGUGGCUAGACUGCC : its self-cleavage reads 0.1

Entry GGCAGAGCUCAACACAGCGUGGCAAAGUAGCUGUGGCUAGACUGUC , self-cleavage reported as 1.67

Data point: GGCAGAGCUCAACACAGCGUGGCGAAGUGGGUGUGGCUAGACUGCC ; self-cleavage = 0.05

Documented self-cleavage of GGCAGAGCUCAACACAGCGUGGCAAAGUAGCAGUGGCUAGACUGCC : 0.4

Reported self-cleavage for GGCAGAGCUCAACACAACGUGGCGAAGUGGCUGUGGCUAGACUGCC was 0.18

Consider GGCAGAGAUCAACACAGCGUAGCAAAGUGGCUGUGGCUAGACUGCC . Its measured self-cleavage is 0.63

Record GGCAGAGCUUAACACAGCGUGGCAAAGUGGCUGUGGCUAGACUGAC . Reported self-cleavage: 0.15

Note to self: self-cleavage recorded for GGCAAAGCUCAACACAGCGUUGCAAAGUGGCUGUGGCUAGACUGCC was 0.14

# variant GCCAGAGCUCAACACAGCGUGGCAAAGUGGCUGUUGCUAGACUGCC ; its self-cleavage = 0.23

response.value for GACAGAGCUCAACACAGCGUGGCAAAGUGGCUGUCGCUAGACUGCC (field: self-cleavage) = 0.34

Record GGCAGAGCUCAACACAGCGUCGCAAAGUGGCUGUUGCUAGACUGCC , field self-cleavage: 0.16

The variant GGCGGAGCUCACCACAGCGUGGCAAAGUGGCUGUGGCUAGACUGCC showed self-cleavage equal to 0.03

Record GGCAGAGCUAAACACAGCGUUGCAAAGUGGCUGUGGCUAGACUGCC , field self-cleavage: 0.04

// recorded self-cleavage for UGCAGAGCUCAACACAGCGUGGCAAAGUGGCUGUGGCUAGACUGGC : 0.1

Field self-cleavage (entry GGCAGAGCUCAACACAGCGUGGCAAAGUGACUGUGGCUAGAAUGCC ) reads 0.14

The variant listed as GGCAGAGCUGAACAAAGCGUGGCAAAGUGGCUGUGGCUAGACUGCC has a reported self-cleavage of 0.04

Data point: GGCAGAGCUGAACACAGCGUGGCAAAGUGGCUGUGGCUAGACCGCC ; self-cleavage = 0.02

// recorded self-cleavage for GGCAGAGCUCACCACAGCGUGGCAAAGUGCCUGUGGCUAGACUGCC : 0.04

Entry GGCGGAGCUCAACACAGCGUGGCAAAGUGGCUGUGGCUAGACAGCC , self-cleavage reported as 0.12

According to the records, this variant GGCAGAGCUCAACACAGUGUGGCAAUGUGGCUGUGGCUAGACUGCC displays self-cleavage of 1.72

Entry GGCAGAGCUCAACACAGCGUGGCAAAGUGGCUGUACCUAGACUGCC — recorded self-cleavage = 0.17

Note to self: self-cleavage recorded for GGCAGCGCUCAACACAGCGUGGCAAAGUGGCUGUGCCUAGACUGCC was 0.16

Given item GGCAGAGCUCAACACAGCGUGGGAAAGUGGCUGUGGCUAGACUCCC , the value recorded as its self-cleavage is 0.2

self-cleavage in this record for GGCAGAGCUCAACACAGCGUGGCAAAGUGCCAGUGGCUAGACUGCC : 0.26
